- experimental_system: UniProtKB Q9S446
- Sequence (whole entry): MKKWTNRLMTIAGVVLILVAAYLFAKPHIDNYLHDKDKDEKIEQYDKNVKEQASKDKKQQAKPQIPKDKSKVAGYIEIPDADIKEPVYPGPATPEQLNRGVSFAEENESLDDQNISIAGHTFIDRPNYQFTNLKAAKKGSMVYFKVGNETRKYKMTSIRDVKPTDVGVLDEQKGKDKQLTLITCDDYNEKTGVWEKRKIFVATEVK
- test: Binding affinity to Staphylococcus aureus SrtA by ligand based 1D CPMG relaxation dispersion NMR analysis
The source made the active and inactive calls. The rule behind the calls is not given here.
measurement_kind: Activity

{"molecular_string": "Nc1nnc(Sc2ccc([N+](=O)[O-])cc2)s1", "Activity": "inactive"}
{"molecular_string": "Nc1nnc(SCc2ccc(F)cc2)s1", "Activity": "inactive"}
{"molecular_string": "O=C(Nc1nnc(SCc2ccc([N+](=O)[O-])cc2)s1)c1ccncc1", "Activity": "inactive"}
{"molecular_string": "Nc1nnc(SCc2ccc([N+](=O)[O-])cc2)s1", "Activity": "Active"}
{"molecular_string": "Nc1nnc(SCc2ccccc2)s1", "Activity": "inactive"}
{"molecular_string": "O=C(Nc1nnc(SCc2cccc([N+](=O)[O-])c2)s1)c1ccncc1", "Activity": "Active"}
{"molecular_string": "O=[N+]([O-])c1cccc(CSc2nnc(N3CCNCC3)s2)c1", "Activity": "inactive"}
{"molecular_string": "O=[N+]([O-])c1cccc(CSc2nnc(N3CCOCC3)s2)c1", "Activity": "Active"}
{"molecular_string": "CC(=O)Nc1nnc(SCc2ccc([N+](=O)[O-])cc2)s1", "Activity": "Active"}
{"molecular_string": "Nc1nnc(SCCc2cccc([N+](=O)[O-])c2)s1", "Activity": "inactive"}

Just so you know, measured Activity for `O=[N+]([O-])c1ccc(CSc2nnc(N3CCOCC3)s2)cc1` came out at Active

Just so you know, measured Activity for `Nc1nnc(Sc2ccccc2)s1` came out at inactive
